So I've got a bunch of molecules here, and I need their IC50 values.
# System: MR (Homo sapiens, UniProt P08235)
# Construct: expressed in transfected cells; host or cells: Huh7 human liver cells (ATCC), transient transfection with FuGENE 6
# Sequence (P08235 726-964 limits assumed): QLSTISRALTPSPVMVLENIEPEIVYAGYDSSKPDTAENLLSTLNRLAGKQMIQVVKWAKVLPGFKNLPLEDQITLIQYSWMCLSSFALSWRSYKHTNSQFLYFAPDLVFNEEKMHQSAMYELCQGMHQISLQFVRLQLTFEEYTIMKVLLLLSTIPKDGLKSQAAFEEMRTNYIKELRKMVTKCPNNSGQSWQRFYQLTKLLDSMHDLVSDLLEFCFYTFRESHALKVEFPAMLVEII
# Test Summary: Cell-based reporter assay (Gal4-MR-LBD luciferase, antagonist mode)
Write the value in nM as a bare number.

Query :: # returns recorded IC50 (system: MR (Homo sapiens, UniProt P08235)) for O=C1COc2ccc(N3C[C@@H](CF)OC[C@H]3c3ccccc3)nc2N1 [Example 39]
Result :: 86.7

Query :: # returns recorded IC50 (system: MR (Homo sapiens, UniProt P08235)) for C[C@H]1CN(c2ncc3c(n2)NC(=O)CO3)[C@@H](c2ccccc2Cl)CO1 (racemic) [Example 64]
Result :: 449

Query :: # returns recorded IC50 (system: MR (Homo sapiens, UniProt P08235)) for C[C@@H]1CN(c2ccc3c(n2)NC(=O)CO3)[C@H](c2ccccc2Cl)CO1 (single isomer, unassigned) [Example 67]
Result :: 135

Query :: # returns recorded IC50 (system: MR (Homo sapiens, UniProt P08235)) for O=C1COc2ccc(N3CCOC[C@@H]3c3ccccc3)cc2N1 [Example 41]
Result :: 5230

Query :: # returns recorded IC50 (system: MR (Homo sapiens, UniProt P08235)) for O=C1COc2ccc(N3CCOC(c4ccccc4)C3c3ccccc3)cc2N1 (stereo not shown) [Example 75]
Result :: 3080

Query :: # returns recorded IC50 (system: MR (Homo sapiens, UniProt P08235)) for C[C@@H]1CN(c2ccc3c(c2)NC(=O)CO3)[C@H](c2ccccc2)CO1 [Example 28]
Result :: 24

Query :: # returns recorded IC50 (system: MR (Homo sapiens, UniProt P08235)) for C[C@@H]1CN(c2cccc(NS(C)(=O)=O)n2)[C@H](c2ccccc2)CO1 [Example 27]
Result :: 1230

Query :: # returns recorded IC50 (system: MR (Homo sapiens, UniProt P08235)) for Cc1cc(N2CCOC[C@H]2c2ccccc2)cc2c1OCC(=O)N2 (single isomer, unassigned) [Example 22]
Result :: 885

Query :: # returns recorded IC50 (system: MR (Homo sapiens, UniProt P08235)) for O=C1COc2cnc(N3C[C@@H](C4CC4)OC[C@H]3c3ccccc3)nc2N1 [Example 44]
Result :: 1230

Query :: # returns recorded IC50 (system: MR (Homo sapiens, UniProt P08235)) for C[C@H]1CN(c2cc3c(cn2)OCC(=O)N3)[C@@H](c2cccc(F)c2)CO1 (racemic) [Example 50]
Result :: 272

Query :: # returns recorded IC50 (system: MR (Homo sapiens, UniProt P08235)) for C[C@@H]1CN(c2ncc3c(n2)NC(=O)CO3)[C@H](c2ccc(F)cc2)CO1 [Example 55]
Result :: 485

Query :: # returns recorded IC50 (system: MR (Homo sapiens, UniProt P08235)) for O=C1COc2ccc(N3CCOC[C@H]3c3ccc(F)cc3)nc2N1 (single isomer, unassigned) [Example 14]
Result :: 1100

Query :: # returns recorded IC50 (system: MR (Homo sapiens, UniProt P08235)) for Cc1c(NS(C)(=O)=O)cccc1N1C[C@@H](C)OC[C@H]1c1ccccc1 [Example 63]
Result :: 4270

Query :: # returns recorded IC50 (system: MR (Homo sapiens, UniProt P08235)) for CC1(C)CN(c2ccc3c(n2)NC(=O)CO3)[C@H](c2ccccc2)CO1 [Example 13]
Result :: 407

Query :: # returns recorded IC50 (system: MR (Homo sapiens, UniProt P08235)) for C[C@@H]1CN(c2cc3c(cn2)OCC(=O)N3)[C@H](c2ccccc2F)CO1 (single isomer, unassigned) [Example 33]
Result :: 53.9

Query :: # returns recorded IC50 (system: MR (Homo sapiens, UniProt P08235)) for C[C@H]1CN(c2ccc3c(n2)NC(=O)CO3)[C@@H](c2ccccc2Cl)CO1 (racemic) [Example 66]
Result :: 451
